tested.system: Corticotropin-releasing factor receptor 2/Corticotropin-releasing factor-binding protein (Homo sapiens, UniProt P24387+Q13324)
Sequence (Q13324 whole entry): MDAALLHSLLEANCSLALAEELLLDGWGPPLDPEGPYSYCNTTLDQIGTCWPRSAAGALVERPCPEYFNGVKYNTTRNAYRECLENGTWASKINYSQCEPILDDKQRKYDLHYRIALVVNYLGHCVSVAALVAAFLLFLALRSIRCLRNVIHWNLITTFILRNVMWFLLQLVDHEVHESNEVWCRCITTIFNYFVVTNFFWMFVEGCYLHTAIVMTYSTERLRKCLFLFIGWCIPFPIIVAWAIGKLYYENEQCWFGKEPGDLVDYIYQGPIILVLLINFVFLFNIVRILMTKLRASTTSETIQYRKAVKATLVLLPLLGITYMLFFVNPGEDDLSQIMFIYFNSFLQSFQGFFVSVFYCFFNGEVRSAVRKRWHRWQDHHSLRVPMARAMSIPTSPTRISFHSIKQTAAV
Sequence (P24387 whole entry): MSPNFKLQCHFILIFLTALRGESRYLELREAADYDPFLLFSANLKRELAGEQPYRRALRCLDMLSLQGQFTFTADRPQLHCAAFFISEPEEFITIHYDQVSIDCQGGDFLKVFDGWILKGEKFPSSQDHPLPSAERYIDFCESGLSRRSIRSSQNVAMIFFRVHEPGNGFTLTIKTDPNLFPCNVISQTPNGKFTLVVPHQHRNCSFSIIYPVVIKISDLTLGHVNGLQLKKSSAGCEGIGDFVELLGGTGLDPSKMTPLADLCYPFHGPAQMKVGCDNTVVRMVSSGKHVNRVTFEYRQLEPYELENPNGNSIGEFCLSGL
assay: Dose Response confirmation of uHTS hits for small molecule antagonists of the CRF-binding protein and CRF-R2 receptor complex.
Format: functional
experimental.conditions: read-out: IC50_Mean
The source made the active and inactive calls.
Outcomes: T = active, F = inactive

compound	discrete.label
COc1ccccc1-c1c(C)nn2c(N3CCN(c4ccccc4OC)CC3)cc(C)nc12	T
Cc1ccc(CN(C(=O)c2ccccc2[N+](=O)[O-])C2CCS(=O)(=O)C2)o1 (centres undefined)	F
C[C@H](NC(=O)Nc1ccc2c(c1)OCCO2)C(=O)O	F
CC1CCC2=NN(C(=O)c3ccco3)C(O)(C(F)(F)F)C2C1 (centres undefined)	F

====

Tested on: Streptococcus sp. 'group A'
assay: growth inhibition of control SK(-) GAS strain, dose response, counter-screen for streptokinase expression inhibitor project, luminescence, kanamycin, BacTiterGlo, confirmation (AID 1900)
Type: functional, organism-based
Active and inactive are the calls of the source.
# EC50 listing for each entry below

compound	EC50
CCN(CC)C(=S)SCC(=O)Nc1nc(-c2ccccc2)c(-c2ccccc2)o1	7.26 µM (active)
COc1cc2nc(S)n3nc(CCn4nc(C)cc4C)nc3c2cc1OC	28.4 µM (active)
OC(CNCC1CCCO1)Cn1c2ccc(Br)cc2c2cc(Br)ccc21 (centres undefined)	3.18 µM (active)
COc1ccc(C(=O)c2c(C(F)(F)F)oc3c2C(=O)c2ccccc2C3=O)cc1	2.26 µM (active)

====

tested.system: Streptokinase A (Streptococcus pyogenes serotype M1)
Sequence (P10520 whole entry): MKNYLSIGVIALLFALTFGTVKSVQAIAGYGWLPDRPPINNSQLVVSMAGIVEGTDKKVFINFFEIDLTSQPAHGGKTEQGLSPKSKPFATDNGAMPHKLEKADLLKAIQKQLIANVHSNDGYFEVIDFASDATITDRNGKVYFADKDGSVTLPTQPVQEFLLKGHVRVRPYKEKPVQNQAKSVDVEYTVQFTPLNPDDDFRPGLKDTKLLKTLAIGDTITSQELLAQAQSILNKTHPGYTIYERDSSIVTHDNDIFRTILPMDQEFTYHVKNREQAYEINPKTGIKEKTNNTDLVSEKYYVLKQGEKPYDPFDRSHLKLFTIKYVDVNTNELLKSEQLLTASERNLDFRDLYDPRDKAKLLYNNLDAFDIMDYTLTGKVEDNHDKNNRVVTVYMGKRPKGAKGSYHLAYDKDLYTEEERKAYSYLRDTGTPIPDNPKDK
assay: S. pyogenes streptokinase expression inhibitors, potency, dose response, plasminogen activation absorbance, OD405 (AID 1914);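 further: secreted streptokinase activity via plasminogen activation per viability signal from cell pellet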
Type: functional, Streptococcus pyogenes M1 GAS
Active and inactive are the calls of the source.
Each item that follows carries a reported EC50.
experimental.endpoint: EC50

mol	reported.result
CCN(CC)C(=S)SCC(=O)Nc1nc(-c2ccccc2)c(-c2ccccc2)o1	8.54 µM (active)
COc1cc2nc(S)n3nc(CCn4nc(C)cc4C)nc3c2cc1OC	> 150 µM (not active)
CCOC(=O)c1nnn(-c2nonc2-n2cccc2)c1CN1CCC(C)CC1	14.9 µM (active)

====

tested.system: Small ubiquitin-related modifier 1 (Homo sapiens)
Sequence (P63165 whole entry): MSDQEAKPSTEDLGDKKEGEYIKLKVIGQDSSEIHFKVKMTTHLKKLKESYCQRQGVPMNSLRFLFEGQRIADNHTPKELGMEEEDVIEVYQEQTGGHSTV
assay: inhibitors of SUMO1 peptide binding, dose response, biochemical, fluorescence polarization, uHTS hits (AID 624382)
Type: functional
experimental.conditions: read-out: IC50_Mean
Activity calls are given as the source filed them.
Outcomes: YES (active), NO (inactive)

mol	discrete.label
O=C1N=c2ccccc2=C1Nc1ccc(S(=O)(=O)Nc2nccs2)cc1	YES
C[C@H]([C@@H](O)[C@@H](O)[C@@H](C)C(C)(C)C)[C@H]1CC[C@H]2[C@@H]3CC[C@H]4C[C@H](OS(=O)(=O)O)[C@@H](OS(=O)(=O)O)C[C@]4(C)[C@H]3CC[C@]12C	YES
COCCN(C(=O)COC(=O)c1cc2c(s1)CCC2)c1c(N)n(Cc2ccccc2)c(=O)[nH]c1=O	NO
Fc1ccc(Nc2nnc(-c3ccncc3)s2)cc1Cl	NO

====

System: Streptococcus
assay: Group A Streptococcus viability loss, dose response, counter-screen for streptokinase expression inhibitor project, luminescence, BacTiterGlo (AID 1915);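 further: potency for reduction of bacterial viability or growth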
Assay type: functional, organism-based
The source made the active and inactive calls.
experimental.endpoint: EC50

compound	tested.system	experimental.endpoint	reported.result
CCN(CC)C(=S)SCC(=O)Nc1nc(-c2ccccc2)c(-c2ccccc2)o1	Streptococcus	EC50	> 150 µM (not active)
CC1(C)CC(c2nc(-c3ccc(Cl)cc3)cs2)CCS1 (stereo not drawn)	Streptococcus	EC50	> 150 µM (not active)
CCOc1ccc(NC(=O)CSc2nnc(Cc3ccccc3)c(=O)n2N)cc1	Streptococcus	EC50	> 150 µM (not active)
COC(=O)C1N2C(=O)[C@@H](NC(=O)COc3ccccc3)[C@H]2SC1(C)C (stereo partly drawn)	Streptococcus	EC50	0.889 µM (active)
Cc1c(Cl)c([N+](=O)[O-])nn1Cc1ccc(C(=O)N/N=C\c2cc(Cl)ccc2O)o1	Streptococcus	EC50	2.38 µM (active)
Cc1ccc(N(C)S(=O)(=O)c2cccc(C(=O)Nc3nc4ccccc4[nH]3)c2)cc1	Streptococcus	EC50	17.4 µM (active)
O=C(O)c1ccccc1-c1ccccc1C(=O)Nc1ccc(-c2nc3cc(Cl)ccc3o2)cc1	Streptococcus	EC50	14 µM (active)
COc1ccc(NC2=NCC(Cc3ccc(Br)cc3)S2)cc1 (stereo not drawn)	Streptococcus	EC50	> 150 µM (not active)
